test system: Pyrenophora teres; assay: Fungicidal action against Pyrenophora teres (net blotch), microtiter growth inhibition; format: cell-based; conditions: Pyrenophora teres, compound alone, 0.5000 ppm; read-out: % activity
readout_kind: inhibition at 0.5 ppm (%)
Write the value in % as a bare number.

The following molecules have reported results that may help.
| molecule | target_or_test_system | inhibition at 0.5 ppm / % |
| --- | --- | --- |
| CC1COC(Cn2cncn2)(c2ccc(Oc3ccc(Cl)cc3)cc2Cl)O1 (stereo not shown) | Pyrenophora teres | 70 |
| Fc1ccc([C@]2(Cn3cncn3)O[C@H]2c2ccccc2Cl)cc1 (racemic) | Pyrenophora teres | 50 |

inhibition at 0.5 ppm reading for CC(Cc1ccc(C(C)(C)C)cc1)CN1CCCCC1 (stereo not shown) : 0

Entry N#Cc1c(Cl)c(Cl)c(Cl)c(C#N)c1Cl , inhibition at 0.5 ppm reported as 20

====

test system: Pseudocercosporella herpotrichoides (syn. Tapesia yallundae); experiment: Fungicidal action against Pseudocercosporella herpotrichoides (eye spot of cereals), microtiter growth inhibition; assay type: cell-based; conditions: Oculimacula yallundae, 0.0156 ppm, alone; read-out: % activity
readout_kind: inhibition at 0.0156 ppm (%)
Write the number in % without appending the unit.

Recorded inhibition at 0.0156 ppm, per entry:
| compound | inhibition at 0.0156 ppm [%] |
| --- | --- |
| Cc1cc(C2CC2)nc(Nc2ccccc2)n1 [Cyprodinil, cyprodinil] | 20 |
| N#Cc1c(Cl)c(Cl)c(Cl)c(C#N)c1Cl [Chlorothalonil, chlorothalonil] | 0 |

The recorded inhibition at 0.0156 ppm for entry Fc1ccc([C@]2(Cn3cncn3)O[C@H]2c2ccccc2Cl)cc1 (racemic) [Epoxiconazole, epoxiconazole] equals 0

CC(Cc1ccc(C(C)(C)C)cc1)CN1CCCCC1 (stereo not shown) [Fenpropidin, fenpropidin] has a reported inhibition at 0.0156 ppm of 0

====

system: Gaeumannomyces graminis; experiment: Fungicidal action against Gaeumannomyces graminis (take-all of cereals), microtiter growth inhibition; type: cell-based; conditions: Gaeumannomyces graminis; compound alone, 0.0625 ppm; read-out: % activity
As shown below, each of these compounds has a reported inhibition at 0.0625 ppm value.
I only need the number, in %, no unit after it.

Study these solved cases before continuing.
| compound | target_or_test_system | value_observed |
| --- | --- | --- |
| CCCC1COC(Cn2cncn2)(c2ccc(Cl)cc2Cl)O1 (stereo not shown) | Gaeumannomyces graminis | 0 |
| CC1COC(Cn2cncn2)(c2ccc(Oc3ccc(Cl)cc3)cc2Cl)O1 (stereo not shown) | Gaeumannomyces graminis | 0 |
| OC(Cc1ccccc1Cl)(Cn1nc[nH]c1=S)C1(Cl)CC1 (stereo not shown) | Gaeumannomyces graminis | 50 |

As a next step, examine the compound that follows.
Data point: CC(C1CC1)C(O)(Cn1cncn1)c1ccc(Cl)cc1 (stereo not shown) ; inhibition at 0.0625 ppm = 20
